Entries and their Antagonism HL-5 cells IC50
# system tested: T1, human prolactin receptor (human, UniProt P16471 25-622)
# T1 sequence (looked up): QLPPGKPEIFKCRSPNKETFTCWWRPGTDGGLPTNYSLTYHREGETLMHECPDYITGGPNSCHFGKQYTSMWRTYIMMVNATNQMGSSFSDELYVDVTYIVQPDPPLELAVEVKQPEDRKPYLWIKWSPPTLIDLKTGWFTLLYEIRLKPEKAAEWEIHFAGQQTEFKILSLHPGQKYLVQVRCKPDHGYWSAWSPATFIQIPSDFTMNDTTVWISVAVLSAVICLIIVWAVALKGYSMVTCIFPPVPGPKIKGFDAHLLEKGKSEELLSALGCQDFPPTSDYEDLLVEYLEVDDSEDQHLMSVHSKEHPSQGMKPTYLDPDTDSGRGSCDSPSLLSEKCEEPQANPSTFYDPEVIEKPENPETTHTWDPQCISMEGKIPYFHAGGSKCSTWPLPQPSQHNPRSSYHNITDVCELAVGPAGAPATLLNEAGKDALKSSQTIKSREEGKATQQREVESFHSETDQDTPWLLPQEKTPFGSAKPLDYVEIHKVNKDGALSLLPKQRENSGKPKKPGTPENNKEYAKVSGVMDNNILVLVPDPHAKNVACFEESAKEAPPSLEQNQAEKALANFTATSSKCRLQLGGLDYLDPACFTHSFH
# method: cell-based or functional assay
All answers are understood in nM, so give the number only.

Below are worked cases with known answers.
[
  {
    "binder": "G129L-hPRL (ligand, human, UniProt P01236 29-227, looked up) LPICPGGAARCQVTLRDLFDRAVVLSHYIHNLSSEMFSEFDKRYTHGRGFITKAINSCHTSSLATPEDKEQAQQMNQKDFLSLIVSILRSWNEPLYHLVTEVRGMQEAPEAILSKAVEIEEQTKRLLELMELIVSQVHPETKENEIYPVWSGLPSLQMADEESRLSAYYNLLHCLRRDSHKIDNYLKLLKCRIIHNNNC",
    "reported": 160
  },
  {
    "binder": "G129N-hPRL (ligand, human, UniProt P01236 29-227, looked up) LPICPGGAARCQVTLRDLFDRAVVLSHYIHNLSSEMFSEFDKRYTHGRGFITKAINSCHTSSLATPEDKEQAQQMNQKDFLSLIVSILRSWNEPLYHLVTEVRGMQEAPEAILSKAVEIEEQTKRLLENMELIVSQVHPETKENEIYPVWSGLPSLQMADEESRLSAYYNLLHCLRRDSHKIDNYLKLLKCRIIHNNNC",
    "reported": 130
  }
]

Task item: Given G129F-hPRL (ligand, human, UniProt P01236 29-227, looked up) LPICPGGAARCQVTLRDLFDRAVVLSHYIHNLSSEMFSEFDKRYTHGRGFITKAINSCHTSSLATPEDKEQAQQMNQKDFLSLIVSILRSWNEPLYHLVTEVRGMQEAPEAILSKAVEIEEQTKRLLEFMELIVSQVHPETKENEIYPVWSGLPSLQMADEESRLSAYYNLLHCLRRDSHKIDNYLKLLKCRIIHNNNC , state its recorded Antagonism HL-5 cells IC50.
Reply: 110

Task item: Another binder to look at: G129P-hPRL (ligand, human, UniProt P01236 29-227, looked up) LPICPGGAARCQVTLRDLFDRAVVLSHYIHNLSSEMFSEFDKRYTHGRGFITKAINSCHTSSLATPEDKEQAQQMNQKDFLSLIVSILRSWNEPLYHLVTEVRGMQEAPEAILSKAVEIEEQTKRLLEPMELIVSQVHPETKENEIYPVWSGLPSLQMADEESRLSAYYNLLHCLRRDSHKIDNYLKLLKCRIIHNNNC
Reply: 340

Task item: Another binder to look at: G129V-hPRL (ligand, human, UniProt P01236 29-227, looked up) LPICPGGAARCQVTLRDLFDRAVVLSHYIHNLSSEMFSEFDKRYTHGRGFITKAINSCHTSSLATPEDKEQAQQMNQKDFLSLIVSILRSWNEPLYHLVTEVRGMQEAPEAILSKAVEIEEQTKRLLEVMELIVSQVHPETKENEIYPVWSGLPSLQMADEESRLSAYYNLLHCLRRDSHKIDNYLKLLKCRIIHNNNC
Reply: 110

Sourced from patent EP2025683A1
